system: EKVX; assay: NCI tumour cell line growth inhibition, 48 h
Calls of active or inactive are those of the source. No stated cut-off is given here; in the data, active = GI50 up to about 1.1 µM and inactive = higher.
Labels: yes (active), no (inactive)

compound	group label
O=C1C2CC=CCC2C(=O)N1n1c(Cc2ccc(Cl)cc2)n[nH]c1=O (configuration not stated)	no
COc1cc(CNc2cnc3cc(N)ccc3n2)cc(OC)c1OC	no
Oc1c(/N=N\c2ccccc2)c2cccc3ccc4cccc1c4c32	no
CC1(C)[C@@H]2CC[C@@]1(C)[C@@H]1O[C@@H](O[C@@H](CN)c3cc(Cl)c(OCc4ccccc4)c(OCc4ccccc4)c3)C[C@H]21	yes
Cc1ccc(NC(=O)CSc2nnc(Cc3ccccc3)o2)cc1	no
COC(=O)C(=O)C(C(=O)C=C(C)C)C(=O)C(=O)Nc1cccc(C(C)=O)c1 (configuration not stated)	no
COC(=O)Cc1c(-c2c(CC(=O)OC)c3ccccc3n2C2OC(COC(C)=O)C(OC(C)=O)C(OC(C)=O)C2OC(C)=O)[nH]c2ccccc12 (configuration not stated)	no

###

test system: NCI-H460; experiment: NCI tumour cell line growth inhibition, 48 h
Calls of active or inactive are those of the source. Rule as the data show it: active = GI50 up to about 1.1 µM and inactive = higher.
In this section we review reported GI50 values for a set of compounds.

compound	GI50
CN(C)CC1CCC/C(=C\c2ccc(OC(=O)/C=C/c3ccc(Cl)cc3)cc2)C1=O (stereo not given)	8.02 µM (inactive)
CS(=O)(=O)OCCN1CCC2(CC1)SSC1(CCN(CCOS(C)(=O)=O)CC1)S2	34.8 µM (inactive)
CC(=O)c1c2c(cc3c1CC1(C3)Cc3cc4c(c(C(=O)O)c3C1)CCC4)CCC2 (stereo not given)	32 µM (inactive)
COC(=O)[C@H](Cc1ccccc1)NC(=O)NCCN(CCNC(=O)N[C@@H](Cc1ccccc1)C(=O)OC)C(=O)N[C@@H](Cc1ccccc1)C(=O)OC	18.8 µM (inactive)
COCCNC1CCC2(SCCS2)c2[nH]c3ccccc3c21 (stereo not given)	67.8 µM (inactive)
Cc1cccc(NC2=NCCO2)c1Cl	> 100 µM (inactive)
CC1(CCCC2(C)CCNC2=O)OCCO1 (stereo not given)	> 10 µM (inactive)
OC[C@H]1CC(c2nn[nH]n2)[C@H](O)[C@@H]1O (stereo not given in full)	> 100 µM (inactive)
NC1CCCCC1.O=C(CP(=O)(O)O)NC(CC(=O)OCc1ccccc1)C(=O)OCc1ccccc1 (stereo not given)	> 100 µM (inactive)
CN(c1ccccc1)c1nc(=[N+]2CCCC2)ss1.[O-][Cl+3]([O-])([O-])[O-]	1.85 µM (inactive)
N#CC1=C(c2ccccc2)NNC(c2ccc(Cl)cc2)CC1=O (stereo not given)	36.1 µM (inactive)
O=C(O)CSc1ccc(N=C=S)cc1	56.9 µM (inactive)
CCO/C([O-])=C(\C(=O)c1ccccc1)[n+]1c(C)sc2ccccc21	59.3 µM (inactive)
CC(C)Oc1cccc(N2C(NCc3c[nH]c4ccccc34)=Nc3ccncc3S2(=O)=O)c1	18.5 µM (inactive)
Cc1ccc2c(=O)c3ccccc3sc2c1	> 100 µM (inactive)
N#CC1=C2SCCN2C(=O)C(C#N)C12CCCCC2 (stereo not given)	> 100 µM (inactive)
O=C1C=CC(S(=O)(=O)C2=C/C(=C/Nc3ccc(Cl)cc3)C(=O)C=C2)=C/C1=C/Nc1ccc(Cl)cc1	> 100 µM (inactive)
Cc1ccc2nc(CN3CCCCC3)cc(=O)n2c1	> 100 µM (inactive)
FC(F)(F)C12C34C=CC5(CCC6(C=CC1(CC3)O6)C52C(F)(F)F)O4 (stereo not given)	> 100 µM (inactive)
COC(=O)C(=C\Sc1ccccc1)/C=C/C(=O)OC(C)(C)C	17.7 µM (inactive)

###

Listed molecules paired with reported GI50
tested on: M14; experiment: NCI tumour cell line growth inhibition, 48 h
Active and inactive are the calls of the source. No stated cut-off is given here; in the data, active = GI50 up to about 1.1 µM and inactive = higher.

molecule	GI50
COc1cc2ccc3c4cc(OC)c(OCc5ccccc5)cc4cnc3c2cc1OC	> 100 µM (inactive)
C[C@H]1O[C@@H](c2c(O)ccc3ccccc23)C[C@@H](N(C)C)C1O (some centres undefined)	78.5 µM (inactive)
O=C(c1ccc(Cl)cc1)N(Cc1cccnc1)C(=S)N(Cc1cccnc1)C(=O)c1ccc(Cl)cc1	22.7 µM (inactive)
CNC(c1ccncc1)C(NC)c1ccncc1 (centres undefined)	> 100 µM (inactive)

###

test system: HL-60; experiment: NCI tumour cell line growth inhibition, 48 h
Activity calls are given as the source filed them. Rule as the data show it: active = GI50 up to about 1.1 µM and inactive = higher.
Classes used: active, inactive

compound	group label
O=S1(=O)C[C@@H](O)[C@H](O)CS1	inactive
NS(=O)(=O)c1ccc(NNc2c3ccccc3nc3ccccc23)cc1	inactive
CN(C)CC1CCC/C(=C\c2ccc(OC(=O)/C=C/c3ccc(Cl)cc3)cc2)C1=O (stereo not given)	active
CCC/N=C(/NC(=O)c1ccc(Cl)cc1)SC	inactive
O=C1OC(c2ccccc2)=N/C1=C\c1ccc(N(CCCl)CCCl)cc1	inactive
O=C(/C=C/c1ccsc1)c1ccc(Cl)s1	inactive
CC1(C)CCCC(C)(C2CCC3(C)C2C(O)CC2C4(C)CCC(O)C(C)(C)C4CCC23C)O1 (stereo not given)	inactive
CC(=O)Oc1ccc2c(c1)CC[C@@H]1C2CC[C@]2(C)C(=O)NC(=O)CC12 (stereo not given in full)	inactive
Cc1ccccc1NC(=O)C1C(=O)N(c2ccccc2C)C(=O)/C1=N\NC(N)=S (stereo not given)	inactive
O=C1CC(c2c(-c3ccccc3)[nH]c3ccccc23)C(=O)N1 (stereo not given)	inactive
C=C1C(=O)OC2CC1C(O)C/C(C)=C/CC/C(C)=C/C(O)CC2C (stereo not given)	active
CC1(CCCC2(C)CCNC2=O)OCCO1 (stereo not given)	inactive
O=C1CCCCCCCCCCC1CN1CCCCC1 (stereo not given)	inactive
CCSC1=N/C(=C\c2ccccc2O)C(Nc2ccc(C)cc2)=N1	inactive
CCc1nc2c(O)ccc(O)c2nc1C	inactive

###

tested on: HOP-92; test: NCI tumour cell line growth inhibition, 48 h
Calls of active or inactive are those of the source. Rule as the data show it: active = GI50 up to about 1.1 µM and inactive = higher.
Outcome codes: active, inactive

compound	study target	group label
S=c1sscc1N1CCSc2ssc(=S)c21	HOP-92	inactive
COC(=O)/C(C#N)=C1\CCc2ccccc21	HOP-92	inactive
c1ccc(Cn2c(-c3ccc(-c4ccccc4)cc3)cc3ccccc32)cc1	HOP-92	inactive
CCC(=O)Nc1ccc(N2C(=O)C(Cl)C2c2ccc(SC)cc2)cc1 (stereo not given)	HOP-92	inactive
Cc1c2ccccc2c(CSC(=N)N)c2ccccc12	HOP-92	active
O=C(O)CSc1ccc(N=C=S)cc1	HOP-92	inactive
CC(=O)Oc1cc(Cl)c(OC(C)=O)c2c(OC(C)=O)c(C)c(O[Si](C)(C)C(C)(C)C)cc12	HOP-92	inactive
Nc1nc2c(ncn2C2CCC(CO)O2)c(=O)n1C(=O)c1ccccc1 (stereo not given)	HOP-92	inactive
N#C/N=C(/N)NCc1ccccc1	HOP-92	inactive
O=[PH](O)c1cccs1	HOP-92	inactive
CCSC1=N/C(=C\c2ccccc2O)C(Nc2ccc(C)cc2)=N1	HOP-92	inactive
Cc1ccc2c(c1)CC1(C2=O)[C@H](c2ccccc2)C2C(=O)c3ccc(C)cc3C2[C@H]1c1ccccc1 (stereo not given in full)	HOP-92	inactive
O=C1C(Cl)C(c2cc(Br)ccc2O)N1n1cnc2ccccc2c1=O (stereo not given)	HOP-92	inactive
O=S1(=O)C[C@@H](O)[C@H](O)CS1	HOP-92	inactive
O=c1[nH]cc(/N=C/c2cc(Cl)ccc2O)c(=O)[nH]1	HOP-92	inactive
CC1(C)CCCC(C)(C2CCC3(C)C2C(O)CC2C4(C)CCC(O)C(C)(C)C4CCC23C)O1 (stereo not given)	HOP-92	inactive
COC(CNC(=O)C(C)NC(=O)C(C)NC(=O)c1ccccc1)OC (stereo not given)	HOP-92	inactive
CO/N=C1/c2sccc2[C@H](NC(=O)C(F)(F)F)[C@@H]1O	HOP-92	inactive
Cc1cc(O)c(C(=O)O)c2c1C(=O)c1c(O)c(OCC(O)C(O)C(O)C(O)CO)c(O)c(O)c1C2=O.NCCNCCO (stereo not given)	HOP-92	inactive
CCOc1ccccc1NC(=O)CCc1nnc2s/c(=C\CCc3ccccc3)c(=O)n12	HOP-92	inactive
C/C1=C\[C@H](C)C[C@H](C)OC(=O)C[C@H](c2ccc(O)cc2)NC(=O)[C@H](Cc2ccc(O)c(Br)c2)N(C)C(=O)[C@H](C)NC(=O)[C@@H](C)C1	HOP-92	inactive
N/N=c1\[nH]c2ccccc2o1	HOP-92	inactive
COC(C(=O)C(O)C(C)O)C1CC2C=C3C=C(OC4CC(OC5CC(O)C(OC)C(C)O5)C(OC(C)=O)C(C)O4)C(C)C(O)=C3C(O)=C2C(=O)C1OC1CC(OC2CC(OC3CC(C)(O)C(OC(=O)C(C)C)C(C)O3)C(O)C(C)O2)C(O)C(C)O1 (stereo not given)	HOP-92	active
O=C(Cn1ccnc1[N+](=O)[O-])c1ccc(F)cc1	HOP-92	inactive
O=C1C2=C(CC3=C(C2)CS(=O)(=O)C3)C(=O)C2=C1CC1=C(C2)CS(=O)(=O)C1	HOP-92	inactive
COC(=O)/C=C(\C)CC(O)/C=C(\C)CCC=C(C)C (stereo not given)	HOP-92	inactive
COC(=O)C(=C\Sc1ccccc1)/C=C/C(=O)OC(C)(C)C	HOP-92	inactive
C=C1CC2(CC(c3ccccc3C)OC(c3ccccc3C)C2)OC1=O (stereo not given)	HOP-92	inactive
Nc1ccn(C2CCC(CO)O2)c(=O)n1 (stereo not given)	HOP-92	inactive
CCCCN(C)C(=O)C1=C(C)NC(C)=C(C(=O)N(C)CCCC)C1	HOP-92	inactive
COC(=O)C1=C(C)NC(C)=C(C(=O)OC)C1c1ccc(/[N+]([O-])=C/c2ccccc2)cc1	HOP-92	inactive
CC1C(=O)OC2CC[N+]3([O-])CC=C(COC(=O)C(C)(O)C1(C)O)C23 (stereo not given)	HOP-92	inactive
N#CCCN(CCC#N)c1ccc(C(=N/c2ccc(F)cc2)/N=N/c2ccc(Cl)cc2)cc1	HOP-92	inactive
FC(F)(F)C12C34C=CC5(CCC6(C=CC1(CC3)O6)C52C(F)(F)F)O4 (stereo not given)	HOP-92	inactive
CC(C)C[C@H](NC(=O)[C@H](Cc1ccc(F)cc1)NC(=O)c1ccccn1)B(O)O	HOP-92	active
